test system: 521955-158-R2-J5-PDC complex spheroid growth, % test/control; test: Anticancer human tumor 521955-158-R2-J5-PDC patient-derived pancreatic carcinoma cell line growth inhibition [Asc]; conditions: second compound 0.03 µM; first compound 0.00316 µM; active compounds read low

compound: CNC(C)C(=O)NC1CN(S(=O)(=O)c2cccc(S(=O)(=O)N3CCC4CCC(C(=O)NC(c5ccccc5)c5ccccc5)N4C(=O)C(NC(=O)C(C)NC)C3)c2)CCC2CCC(C(=O)NC(c3ccccc3)c3ccccc3)N2C1=O (centres undefined) + CCN1C(C(=O)NC23CCC(C(=O)O)(CC2)CC3)C(c2cccc(Cl)c2F)C2(C(=O)Nc3cc(Cl)ccc32)C12CCCCC2
measured_on: 521955-158-R2-J5-PDC complex spheroid growth, % test/control
viability, T/C, %: 141

compound: CCN1CCN(Cc2ccc(Nc3ncc(F)c(-c4cc(F)c5nc(C)n(C(C)C)c5c4)n3)nc2)CC1 + CCN1C(C(=O)NC23CCC(C(=O)O)(CC2)CC3)C(c2cccc(Cl)c2F)C2(C(=O)Nc3cc(Cl)ccc32)C12CCCCC2
measured_on: 521955-158-R2-J5-PDC complex spheroid growth, % test/control
viability, T/C, %: 87.5

compound: COc1c(OCCCN2CCOCC2)ccc2c3n(c(=NC(=O)c4cnc(N)nc4)nc12)CCN3 + CCN1C(C(=O)NC23CCC(C(=O)O)(CC2)CC3)C(c2cccc(Cl)c2F)C2(C(=O)Nc3cc(Cl)ccc32)C12CCCCC2
measured_on: 521955-158-R2-J5-PDC complex spheroid growth, % test/control
viability, T/C, %: 53.5

compound: O=C(c1ccc(F)c(F)c1Nc1ccc(I)cc1F)N1CC(O)([C@@H]2CCCCN2)C1 + CCN1C(C(=O)NC23CCC(C(=O)O)(CC2)CC3)C(c2cccc(Cl)c2F)C2(C(=O)Nc3cc(Cl)ccc32)C12CCCCC2
measured_on: 521955-158-R2-J5-PDC complex spheroid growth, % test/control
viability, T/C, %: 65.8

---

test system: 521955-158-R2-J5-PDC complex spheroid growth, % test/control; test: Anticancer human tumor 521955-158-R2-J5-PDC cell line growth inhibition [Asc]; conditions: second compound 1 µM; first compound 3.16 µM; active compounds read low;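 further: spheroids exposed to agents for 7 days before readout; 100% = DMSO vehicle control viability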
// viability, T/C lookup, one value per entry

compound: O=C(c1cc(Cc2n[nH]c(=O)c3ccccc23)ccc1F)N1CCN(C(=O)C2CC2)CC1 + CNC(C)C(=O)NC1CN(S(=O)(=O)c2cccc(S(=O)(=O)N3CCC4CCC(C(=O)NC(c5ccccc5)c5ccccc5)N4C(=O)C(NC(=O)C(C)NC)C3)c2)CCC2CCC(C(=O)NC(c3ccccc3)c3ccccc3)N2C1=O
viability, T/C: 62.5%

compound: C#Cc1c(F)ccc2cc(O)cc(-c3ncc4c(N5CC6CCC(C5)N6)nc(OCC56CCCN5CC(F)C6)nc4c3F)c12 (centres undefined) + CNC(C)C(=O)NC1CN(S(=O)(=O)c2cccc(S(=O)(=O)N3CCC4CCC(C(=O)NC(c5ccccc5)c5ccccc5)N4C(=O)C(NC(=O)C(C)NC)C3)c2)CCC2CCC(C(=O)NC(c3ccccc3)c3ccccc3)N2C1=O
viability, T/C: 19.7%

compound: O=C(c1cc(Cc2n[nH]c(=O)c3ccccc23)ccc1F)N1CCN(C(=O)C2CC2)CC1 + Cc1c(S(C)(=O)=O)c(-c2cc(F)cc(N3CCN(c4ccc(NS(=O)(=O)c5ccc(NC(CCN6CCC(C(=O)OCCCP(=O)(O)O)CC6)CSc6ccccc6)c(S(=O)(=O)C(F)(F)F)c5)cc4)CC3)c2)c(-c2ccc(Cl)cc2)n1C(C)C
viability, T/C: 52.6%

compound: C=C(F)C(=O)N1CCN(c2nc(OCC3CCCN3C)nc3c2CCN(c2cccc4cccc(Cl)c24)C3)CC1CC#N (centres undefined) + Cc1c(S(C)(=O)=O)c(-c2cc(F)cc(N3CCN(c4ccc(NS(=O)(=O)c5ccc(NC(CCN6CCC(C(=O)OCCCP(=O)(O)O)CC6)CSc6ccccc6)c(S(=O)(=O)C(F)(F)F)c5)cc4)CC3)c2)c(-c2ccc(Cl)cc2)n1C(C)C
viability, T/C: 106%

---

tested on: 521955-158-R2-J5-PDC complex spheroid growth, % test/control; test: Anticancer human tumor 521955-158-R2-J5-PDC cell line growth inhibition [Asc]; conditions: second compound 0.0949 µM; first compound 0.0316 µM; active compounds read low;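 further: spheroids exposed to agents for 7 days before readout; 100% = DMSO vehicle control viability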
// viability, T/C lookup, one value per entry

compound: CCN1CCN(Cc2ccc(Nc3ncc(F)c(-c4cc(F)c5nc(C)n(C(C)C)c5c4)n3)nc2)CC1 + CCN1C(C(=O)NC23CCC(C(=O)O)(CC2)CC3)C(c2cccc(Cl)c2F)C2(C(=O)Nc3cc(Cl)ccc32)C12CCCCC2
measured_on: 521955-158-R2-J5-PDC complex spheroid growth, % test/control
viability, T/C: 62.8%
//
compound: Cn1ncnc1[C@H]1c2n[nH]c(=O)c3cc(F)cc(c23)N[C@@H]1c1ccc(F)cc1 + CCN1C(C(=O)NC23CCC(C(=O)O)(CC2)CC3)C(c2cccc(Cl)c2F)C2(C(=O)Nc3cc(Cl)ccc32)C12CCCCC2
measured_on: 521955-158-R2-J5-PDC complex spheroid growth, % test/control
viability, T/C: 66.6%
//
compound: COc1c(OCCCN2CCOCC2)ccc2c3n(c(=NC(=O)c4cnc(N)nc4)nc12)CCN3 + CCN1C(C(=O)NC23CCC(C(=O)O)(CC2)CC3)C(c2cccc(Cl)c2F)C2(C(=O)Nc3cc(Cl)ccc32)C12CCCCC2
measured_on: 521955-158-R2-J5-PDC complex spheroid growth, % test/control
viability, T/C: 38.2%

---

// viability, T/C lookup, one value per entry
test system: 521955-158-R2-J5-PDC complex spheroid growth, % test/control; experiment: Anticancer human tumor 521955-158-R2-J5-PDC cell line growth inhibition [Asc]; conditions: second compound 0.1 µM; first compound 0.1 µM; active compounds read low;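 further: spheroids exposed to agents for 7 days before readout; 100% = DMSO vehicle control viability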

compound: NC1CCC(NC2CC2c2ccccc2)CC1 (centres undefined) + CNC(C)C(=O)NC1CN(S(=O)(=O)c2cccc(S(=O)(=O)N3CCC4CCC(C(=O)NC(c5ccccc5)c5ccccc5)N4C(=O)C(NC(=O)C(C)NC)C3)c2)CCC2CCC(C(=O)NC(c3ccccc3)c3ccccc3)N2C1=O
measured_on: 521955-158-R2-J5-PDC complex spheroid growth, % test/control
readout_units: %
viability, T/C: 58.8
--
compound: C#Cc1c(F)ccc2cc(O)cc(-c3ncc4c(N5CC6CCC(C5)N6)nc(OCC56CCCN5CC(F)C6)nc4c3F)c12 (centres undefined) + CNC(C)C(=O)NC1CN(S(=O)(=O)c2cccc(S(=O)(=O)N3CCC4CCC(C(=O)NC(c5ccccc5)c5ccccc5)N4C(=O)C(NC(=O)C(C)NC)C3)c2)CCC2CCC(C(=O)NC(c3ccccc3)c3ccccc3)N2C1=O
measured_on: 521955-158-R2-J5-PDC complex spheroid growth, % test/control
readout_units: %
viability, T/C: 16.6
--
compound: COc1c(OCCCN2CCOCC2)ccc2c3n(c(=NC(=O)c4cnc(N)nc4)nc12)CCN3 + CNC(C)C(=O)NC1CN(S(=O)(=O)c2cccc(S(=O)(=O)N3CCC4CCC(C(=O)NC(c5ccccc5)c5ccccc5)N4C(=O)C(NC(=O)C(C)NC)C3)c2)CCC2CCC(C(=O)NC(c3ccccc3)c3ccccc3)N2C1=O
measured_on: 521955-158-R2-J5-PDC complex spheroid growth, % test/control
readout_units: %
viability, T/C: 27.9
--
compound: CCN1CCN(Cc2ccc(Nc3ncc(F)c(-c4cc(F)c5nc(C)n(C(C)C)c5c4)n3)nc2)CC1 + CNC(C)C(=O)NC1CN(S(=O)(=O)c2cccc(S(=O)(=O)N3CCC4CCC(C(=O)NC(c5ccccc5)c5ccccc5)N4C(=O)C(NC(=O)C(C)NC)C3)c2)CCC2CCC(C(=O)NC(c3ccccc3)c3ccccc3)N2C1=O
measured_on: 521955-158-R2-J5-PDC complex spheroid growth, % test/control
readout_units: %
viability, T/C: 76.9

---

tested on: 521955-158-R2-J5-PDC complex spheroid growth, % test/control; experiment: Anticancer human tumor 521955-158-R2-J5-PDC cell line growth inhibition [Asc]; conditions: second compound 1 µM; first compound 0.001 µM; active compounds read low;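 further: spheroids exposed to agents for 7 days before readout; 100% = DMSO vehicle control viability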

compound: Cn1ncnc1[C@H]1c2n[nH]c(=O)c3cc(F)cc(c23)N[C@@H]1c1ccc(F)cc1 + CNC(C)C(=O)NC1CN(S(=O)(=O)c2cccc(S(=O)(=O)N3CCC4CCC(C(=O)NC(c5ccccc5)c5ccccc5)N4C(=O)C(NC(=O)C(C)NC)C3)c2)CCC2CCC(C(=O)NC(c3ccccc3)c3ccccc3)N2C1=O
viability, T/C / %: 75.1
//
compound: NC1CCC(NC2CC2c2ccccc2)CC1 (stereo not drawn) + CNC(C)C(=O)NC1CN(S(=O)(=O)c2cccc(S(=O)(=O)N3CCC4CCC(C(=O)NC(c5ccccc5)c5ccccc5)N4C(=O)C(NC(=O)C(C)NC)C3)c2)CCC2CCC(C(=O)NC(c3ccccc3)c3ccccc3)N2C1=O
viability, T/C / %: 70.5
//
compound: NC1CCC(NC2CC2c2ccccc2)CC1 (stereo not drawn) + Cc1c(S(C)(=O)=O)c(-c2cc(F)cc(N3CCN(c4ccc(NS(=O)(=O)c5ccc(NC(CCN6CCC(C(=O)OCCCP(=O)(O)O)CC6)CSc6ccccc6)c(S(=O)(=O)C(F)(F)F)c5)cc4)CC3)c2)c(-c2ccc(Cl)cc2)n1C(C)C
viability, T/C / %: 33.9
